- measuredOn: VSTB174
- Sequence (VH, as listed by the source, chain 1 of 2): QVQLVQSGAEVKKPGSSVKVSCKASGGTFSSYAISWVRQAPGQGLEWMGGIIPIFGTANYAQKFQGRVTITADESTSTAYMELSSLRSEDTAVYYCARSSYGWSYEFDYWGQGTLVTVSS
- Sequence (VL, as listed by the source, chain 2 of 2): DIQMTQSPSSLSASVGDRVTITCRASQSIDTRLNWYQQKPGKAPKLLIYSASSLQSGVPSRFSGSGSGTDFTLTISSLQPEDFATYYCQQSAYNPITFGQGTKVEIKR
- methodDescription: peptide blocking ELISA on plate-bound VISTA, peptide 2 ug/mL
Measured percent reduction in ELISA signal values are reported for all entries that follow.
readoutName: percent reduction in ELISA signal

binder | result
GLESASDHHGNFSIT (synthetic overlapping peptide from human VISTA) [Spiked Peptide 18 (GLESASDHHGNFSIT)] | 17%
VCPEGQNVTLTCRLL (synthetic overlapping peptide from human VISTA) [Spiked Peptide 3 (VCPEGQNVTLTCRLL)] | 0%
GPVDKGHDVTFYKTW (synthetic overlapping peptide from human VISTA) [Spiked Peptide 6 (GPVDKGHDVTFYKTW)] | 10%
LYCCLVVEIRHHHSE (synthetic overlapping peptide from human VISTA) [Spiked Peptide 23 (LYCCLVVEIRHHHSE)] | 31%
